Test system: LAD2
test details: Anti-pseudoallergic activity in human LAD2 cells assessed as inhibition of SP-induced beta-aminohexosidase release preincubated for 30 mins followed by SP addition and measured after 30 mins by absorbance based microplate reader analysis
Format: functional, cell-based
assay metric: IC50 (µM)
// return numeric value only (unit: µM, not printed)

(Q) Form field: IC50 recorded for `O=C(CSc1nnc(-c2ccccc2)c(-c2ccccc2)n1)Nc1ccc(Cl)cc1Cl` with LAD2 (enter value)
(A) 4.9

Data provenance: ChEMBL document CHEMBL6115018
